In this section we review reported inhibition of growth at 50 µg/mL values for a set of molecules.
# Test system: Pyricularia oryzae
# experiment summary: Growth inhibition of Magnaporthe oryzae at 50 ug/ml after 4 days by poisoned food technique
# Type: functional
# assay conditions: 96 h, read-out: GI
measure: inhibition of growth at 50 µg/mL (%)

- structure string: "O=[N+]([O-])c1ccccc1Oc1ccc(Cl)cc1"
  measure: "inhibition of growth at 50 µg/mL"
  measurement: 48.3
- structure string: "CC(C)(C)c1ccc(Oc2ccccc2[N+](=O)[O-])cc1"
  measure: "inhibition of growth at 50 µg/mL"
  measurement: 37.9
- structure string: "O=[N+]([O-])c1ccc(Oc2ccccc2)cc1"
  measure: "inhibition of growth at 50 µg/mL"
  measurement: 48
- structure string: "O=[N+]([O-])c1ccc(Oc2ccc([N+](=O)[O-])cc2)cc1"
  measure: "inhibition of growth at 50 µg/mL"
  measurement: 1.9
- structure string: "O=[N+]([O-])c1ccc(Oc2ccccc2Cl)cc1"
  measure: "inhibition of growth at 50 µg/mL"
  measurement: 47.8
- structure string: "CC(C)(C)c1ccc(Oc2ccc([N+](=O)[O-])cc2)cc1"
  measure: "inhibition of growth at 50 µg/mL"
  measurement: 32

----------
# Test system: Alternaria alternata
# experiment summary: Growth inhibition of Alternaria alternata at 500 ug/ml after 4 days by poisoned food technique
# Format: functional
# assay conditions: 96 h, read-out: GI
Label NOT MET if inhibition of growth at 500 µg/mL falls below 60%; label MET in every other case.

- structure string: "O=[N+]([O-])c1ccc(Oc2ccccc2Cl)cc1"
  qualitative label: "MET"
- structure string: "O=[N+]([O-])c1ccccc1Oc1ccc(Cl)cc1"
  qualitative label: "MET"
- structure string: "O=[N+]([O-])c1ccccc1Oc1ccccc1Cl"
  qualitative label: "MET"
- structure string: "CC(C)(C)c1ccc(Oc2ccccc2C#N)cc1"
  qualitative label: "NOT MET"
- structure string: "Cc1cccc(Oc2ccccc2[N+](=O)[O-])c1"
  qualitative label: "MET"
- structure string: "O=[N+]([O-])c1ccc(Oc2ccccc2[N+](=O)[O-])cc1"
  qualitative label: "NOT MET"
- structure string: "N#Cc1ccccc1Oc1ccc(Cl)cc1"
  qualitative label: "MET"
- structure string: "O=[N+]([O-])c1ccccc1Oc1ccccc1"
  qualitative label: "MET"
- structure string: "CC(C)(C)c1ccc(Oc2ccc([N+](=O)[O-])cc2)cc1"
  qualitative label: "NOT MET"
- structure string: "O=[N+]([O-])c1ccc(Oc2ccccc2)cc1"
  qualitative label: "MET"
- structure string: "Cc1cc(O)no1"
  qualitative label: "MET"
- structure string: "O=[N+]([O-])c1ccc(Oc2ccc([N+](=O)[O-])cc2)cc1"
  qualitative label: "NOT MET"
- structure string: "CC(C)(C)c1ccc(Oc2ccccc2[N+](=O)[O-])cc1"
  qualitative label: "NOT MET"

----------
# System: Fusarium oxysporum f. sp. cucumerinum
# experiment summary: Growth inhibition of Fusarium oxysporum f. sp. cucumerinum at 50 ug/ml after 4 days by poisoned food technique
# Assay type: functional
# assay conditions: 96 h, read-out: GI
measure: inhibition of growth at 50 µg/mL (%)

- compound: "CC(C)(C)c1ccc(Oc2ccccc2[N+](=O)[O-])cc1"
  uom: "%"
  measurement: 8.4
- compound: "O=[N+]([O-])c1ccccc1Oc1ccccc1"
  uom: "%"
  measurement: 55.6
- compound: "CC(C)(C)c1ccc(Oc2ccccc2C#N)cc1"
  uom: "%"
  measurement: 20.4
- compound: "Cc1cc(O)no1 [HYMEXAZOL]"
  uom: "%"
  measurement: 19.8
- compound: "O=[N+]([O-])c1ccc(Oc2ccc(Cl)cc2)cc1"
  uom: "%"
  measurement: 34.1
- compound: "N#Cc1ccccc1Oc1ccc(Cl)cc1"
  uom: "%"
  measurement: 48.8
- compound: "O=[N+]([O-])c1ccc(Oc2ccccc2[N+](=O)[O-])cc1 [2,4'-OXYBIS(NITROBENZENE)]"
  uom: "%"
  measurement: 9.3
- compound: "O=[N+]([O-])c1ccc(Oc2ccccc2)cc1"
  uom: "%"
  measurement: 61.2
- compound: "O=[N+]([O-])c1ccccc1Oc1ccccc1Cl"
  uom: "%"
  measurement: 48

----------
# Test system: Fusarium graminearum
# experiment summary: Growth inhibition of Fusarium graminearum at 50 ug/ml after 4 days by poisoned food technique
# Assay type: functional
# assay conditions: 96 h, read-out: GI

- structure string: "Cc1cccc(Oc2ccc([N+](=O)[O-])cc2)c1"
  inhibition of growth at 50 µg/mL / %: 62.8
- structure string: "Cc1cccc(Oc2ccccc2[N+](=O)[O-])c1"
  inhibition of growth at 50 µg/mL / %: 38.8
- structure string: "O=[N+]([O-])c1ccccc1Oc1ccc(Cl)cc1"
  inhibition of growth at 50 µg/mL / %: 59.7
- structure string: "O=[N+]([O-])c1ccccc1Oc1ccccc1"
  inhibition of growth at 50 µg/mL / %: 64.9

----------
Measured inhibition of growth at 50 µg/mL by item
# System: Fusarium oxysporum f. sp. cucumerinum
# experiment summary: Growth inhibition of Fusarium oxysporum f. sp. cucumerinum at 50 ug/ml after 4 days by poisoned food technique
# Assay type: functional
# assay conditions: 96 h, read-out: GI

- structure string: "CC(C)(C)c1ccc(Oc2ccc([N+](=O)[O-])cc2)cc1"
  inhibition of growth at 50 µg/mL / %: 3.6
- structure string: "O=[N+]([O-])c1ccc(Oc2ccc([N+](=O)[O-])cc2)cc1"
  inhibition of growth at 50 µg/mL / %: 38
- structure string: "Cc1cccc(Oc2ccc([N+](=O)[O-])cc2)c1"
  inhibition of growth at 50 µg/mL / %: 57.9
- structure string: "Cc1cccc(Oc2ccccc2[N+](=O)[O-])c1"
  inhibition of growth at 50 µg/mL / %: 50.2
- structure string: "O=[N+]([O-])c1ccc(Oc2ccccc2Cl)cc1"
  inhibition of growth at 50 µg/mL / %: 38.8
- structure string: "O=[N+]([O-])c1ccccc1Oc1ccc(Cl)cc1"
  inhibition of growth at 50 µg/mL / %: 44.9

----------
# Tested on: Fusarium oxysporum f. sp. cucumerinum
# experiment summary: Growth inhibition of Fusarium oxysporum f. sp. cucumerinum at 500 ug/ml after 4 days by poisoned food technique
# Type: functional
# assay conditions: 96 h, read-out: GI
measure: inhibition of growth at 500 µg/mL (%)

- structure string: "CC(C)(C)c1ccc(Oc2ccc([N+](=O)[O-])cc2)cc1"
  tested system: "Fusarium oxysporum f. sp. cucumerinum"
  uom: "%"
  measurement: 10.3
- structure string: "O=[N+]([O-])c1ccc(Oc2ccccc2Cl)cc1"
  tested system: "Fusarium oxysporum f. sp. cucumerinum"
  uom: "%"
  measurement: 75.5
- structure string: "O=[N+]([O-])c1ccccc1Oc1ccc(Cl)cc1"
  tested system: "Fusarium oxysporum f. sp. cucumerinum"
  uom: "%"
  measurement: 50.2

----------
# Test system: Fusarium graminearum
# experiment summary: Growth inhibition of Fusarium graminearum at 50 ug/ml after 4 days by poisoned food technique
# Type: functional
# assay conditions: 96 h, read-out: GI
Classification by inhibition of growth at 50 µg/mL follows these ranges: class 1 (below 40%), class 2 (40% to below 70%), class 3 (70% or more)

- compound: "CC(C)(C)c1ccc(Oc2ccccc2[N+](=O)[O-])cc1"
  tested system: "Fusarium graminearum"
  qualitative label: "class 1"
- compound: "CC(C)(C)c1ccc(Oc2ccccc2C#N)cc1"
  tested system: "Fusarium graminearum"
  qualitative label: "class 1"
- compound: "Cc1cc(O)no1 [HYMEXAZOL]"
  tested system: "Fusarium graminearum"
  qualitative label: "class 1"
- compound: "O=[N+]([O-])c1ccccc1Oc1ccccc1Cl"
  tested system: "Fusarium graminearum"
  qualitative label: "class 2"
- compound: "CC(C)(C)c1ccc(Oc2ccc([N+](=O)[O-])cc2)cc1"
  tested system: "Fusarium graminearum"
  qualitative label: "class 2"
- compound: "O=[N+]([O-])c1ccc(Oc2ccccc2Cl)cc1"
  tested system: "Fusarium graminearum"
  qualitative label: "class 3"
- compound: "O=[N+]([O-])c1ccc(Oc2ccc([N+](=O)[O-])cc2)cc1 [4,4'-OXYBIS(NITROBENZENE)]"
  tested system: "Fusarium graminearum"
  qualitative label: "class 1"
- compound: "O=[N+]([O-])c1ccc(Oc2ccc(Cl)cc2)cc1"
  tested system: "Fusarium graminearum"
  qualitative label: "class 2"
- compound: "N#Cc1ccccc1Oc1ccc(Cl)cc1"
  tested system: "Fusarium graminearum"
  qualitative label: "class 3"
- compound: "O=[N+]([O-])c1ccc(Oc2ccccc2[N+](=O)[O-])cc1 [2,4'-OXYBIS(NITROBENZENE)]"
  tested system: "Fusarium graminearum"
  qualitative label: "class 2"
